Catalogue of AC50 values
# tested_on: Paired box protein Pax-8 (Homo sapiens, UniProt Q06710)
# Sequence (Q06710 whole entry): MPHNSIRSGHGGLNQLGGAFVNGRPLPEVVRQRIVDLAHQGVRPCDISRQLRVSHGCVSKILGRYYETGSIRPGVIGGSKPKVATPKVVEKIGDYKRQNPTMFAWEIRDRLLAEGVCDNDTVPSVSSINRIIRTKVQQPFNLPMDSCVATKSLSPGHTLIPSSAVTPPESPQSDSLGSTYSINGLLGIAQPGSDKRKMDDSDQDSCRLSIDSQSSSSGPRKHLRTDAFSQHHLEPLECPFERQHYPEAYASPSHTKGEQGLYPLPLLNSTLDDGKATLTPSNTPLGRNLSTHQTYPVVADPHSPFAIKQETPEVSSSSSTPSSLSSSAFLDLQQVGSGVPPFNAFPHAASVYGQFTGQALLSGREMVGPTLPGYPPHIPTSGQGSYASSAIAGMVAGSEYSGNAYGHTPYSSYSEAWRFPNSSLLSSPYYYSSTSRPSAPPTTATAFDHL
# experiment: PAX8 transcriptional activity inhibition in RMG-I – RMG-I cells, luciferase, cherry-pick, dose response (AID 687027);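 further: luciferase reporter driven by Pax8 target thyroperoxidase promoter measured by SteadyGlo luminescence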
# Type: functional, cell-based
Activity calls are given as the source filed them. How the calls were made is not given here.

[
  {
    "chemical_string": "C[C@H]1CN([C@@H](C)CO)C(=O)Cc2cc(NC(=O)NC3CCCCC3)ccc2O[C@H]1CN(C)Cc1ccc(-c2ccccc2)cc1",
    "tested_on": "Paired box protein Pax-8 (Homo sapiens, UniProt Q06710)",
    "AC50": "5.8 µM (active)"
  },
  {
    "chemical_string": "NC1=CC(=O)C(=O)c2cccnc21",
    "tested_on": "Paired box protein Pax-8 (Homo sapiens, UniProt Q06710)",
    "AC50": "10.5 µM (active)"
  },
  {
    "chemical_string": "O=C(C1CC1)N1C[C@@H]2N[C@H](C1)[C@@H]2c1ccc(-c2ccncc2)cc1",
    "tested_on": "Paired box protein Pax-8 (Homo sapiens, UniProt Q06710)",
    "AC50": "2.98 µM (active)"
  },
  {
    "chemical_string": "COc1ccc(CN(C)C[C@@H]2OCCCC[C@H](C)Oc3ccc(NC(=O)Nc4ccc(C(F)(F)F)cc4)cc3C(=O)N([C@H](C)CO)C[C@@H]2C)cc1",
    "tested_on": "Paired box protein Pax-8 (Homo sapiens, UniProt Q06710)",
    "AC50": "20.1 µM (active)"
  },
  {
    "chemical_string": "Cc1ccc(S(=O)(=O)N(C)C[C@H]2Oc3ccc(NC(=O)Nc4ccc(C(F)(F)F)cc4)cc3CC(=O)N([C@@H](C)CO)C[C@H]2C)cc1",
    "tested_on": "Paired box protein Pax-8 (Homo sapiens, UniProt Q06710)",
    "AC50": "9.45 µM (active)"
  }
]
